These measurements were taken from ChEMBL document CHEMBL2062503.

test system: MDR1; experiment: Apparent permeability from apical to basolateral side in MDCK cells expressing MDR1; format: ADME, cell-based, Canis lupus familiaris; conditions: dog
readout.type: Papp A→B (×10⁻⁶ cm/s)

* CC(=O)Nc1ccc2ccn(-c3cc(NC4CC4)n4ncc(C#N)c4n3)c2c1 | 22

====

A set of molecules tested on Homeodomain-interacting protein kinase 2 (Homo sapiens, UniProt Q9H2X6), with measured pIC50:
pIC50: −log10 of the molar value.
readout.type: pIC50

• CC(=O)Nc1ccc2ccn(-c3cc(NCCCN(C)C)n4ncc(C#N)c4n3)c2c1 = 7.22
• CC(=O)Nc1cnc2ccn(-c3cc(NC4CC4)n4ncc(C#N)c4n3)c2c1 = 7.70
• CC(=O)Nc1ccc2ccn(-c3cc(NC4CC4)n4ncc(C#N)c4n3)c2c1 = 7.52
